system: Penicillium roquefortii; assay: Antifungal microplate growth inhibition assay (MIC, growth % of control); assay type: cell-based; details: medium B (½ PDB + 1 mM CaCl2 + 50 mM KCl), 48 h, 24° C., agent used alone
Measured MIC / concentration required alone to give strong growth inhibition values are reported for all entries that follow.

Field: example entries. Status: answers known.
{"compound": "O=C(O)CN(CCN(CC(=O)O)CC(=O)O)CC(=O)O", "readout-value": ">200 ppm"}
{"compound": "C/C=C/C=C/C(=O)[O-].[K+] [K sorbate, potassium sorbate]", "readout-value": "1500 ppm"}

**Query** Requested field: MIC / concentration required alone to give strong growth inhibition. Item: O=C([O-])CN(CCN(CC(=O)[O-])CC(=O)[O-])CC(=O)[O-].[Ca+2].[Na+].[Na+] [CaNa2EDTA, calcium disodium EDTA]
**Result** >150 ppm

**Query** Try COc1ccc(O)c(C(C)(C)C)c1 [BHA, butylated hydroxyanisole] next.
**Result** >200 ppm
